Known melting point of a selection of compounds

Solved entries (count: 3):
[[record]]
smiles_notation = "NC(=O)c1c(Nc2ccc(Cl)cc2)n[nH]c1/N=C/c1cccc2ccccc12"
value = "290 to 296 °C"

[[record]]
smiles_notation = "N#Cc1c(Nc2cccc(Cl)c2)n[nH]c1/N=C/c1ccc(-n2cnc3ccccc32)cc1"
value = "308 to 310 °C"

[[record]]
smiles_notation = "N#Cc1c(Nc2cccc(Cl)c2)n[nH]c1/N=C/c1ccc(O)cc1"
value = "242 to 245 °C"


Now for a further compound.
q: Using the record for `N#Cc1c(Nc2ccc(Cl)cc2)n[nH]c1/N=C/c1cccc2ccccc12` , report its melting point.
a: 289 to 292 °C
